- test-target: HIV-1 gp120 (Human immunodeficiency virus 1)
- assay-method-text: competition
- protocol-conditions: PS all linkages, 3'-amine; ID50 for gp120, gp120-CD4 interaction
Hi there, I'd appreciate the recorded IC50 for every entry that follows.
One number for each entry, in nM.

Use the examples below as a reference point.
{"sequence-content": "GTTGGGGGTTGTTGGTGGGGTGGTGG [I100-12]", "IC50 / nM": 80}
{"sequence-content": "GGGTGGGTGGGTGGGTGG [1174]", "IC50 / nM": 90}

# context switch: different sequence, same IC50
Inquiry: I would be grateful if you could share the reported IC50 for GTGGTGGGTGGGTGGGTGGTGGGTGGTGGTTGTGGGTGGGTGGTG [I100-21] .
Reply text: 70

====

- test-target: HIV-1 gp120 (Human immunodeficiency virus 1) (UniProt P04578)
- assay-method-text: competition
- protocol-conditions: phosphodiester, 3'-propanolamine; ID50 for gp120, gp120-CD4 interaction
observation-type: IC50
Report the figure along with its unit, number first.

Inquiry: Provide the documented IC50 with HIV-1 gp120 (Human immunodeficiency virus 1) (UniProt P04578) as the system for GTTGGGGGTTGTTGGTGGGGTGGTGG [I100-00]
Reply text: 3.5 µM

====

- test-target: SIV integrase (Simian immunodeficiency virus) (UniProt P05897)
- Sequence: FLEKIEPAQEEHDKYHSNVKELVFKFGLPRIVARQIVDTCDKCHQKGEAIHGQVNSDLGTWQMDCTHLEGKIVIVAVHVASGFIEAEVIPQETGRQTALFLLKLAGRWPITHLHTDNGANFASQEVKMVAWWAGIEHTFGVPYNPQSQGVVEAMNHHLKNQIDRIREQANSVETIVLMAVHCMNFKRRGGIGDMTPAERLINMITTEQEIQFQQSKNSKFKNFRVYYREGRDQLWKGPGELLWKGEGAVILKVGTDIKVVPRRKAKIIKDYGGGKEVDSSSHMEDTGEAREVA
- assay-method-text: inhibition
- protocol-conditions: PS at first and last internucleoside linkages (pPT), 3'-OH; 3'-processing
observation-type: pIC50
Answers are plain numbers, as −log10 of the molar value.

Inquiry: Tell me reported pIC50 for GTGGTGGGTGGGTGGGT [T30177 (AR177)] , tested with SIV integrase (Simian immunodeficiency virus) (UniProt P05897).
Reply text: 6.38

====

- test-target: HIV-1 integrase wild-type (IN1-288) (Human immunodeficiency virus 1) (UniProt P12497)
- assay-method-text: inhibition
- protocol-conditions: PS all linkages; I; 3'-processing; strand transfer 0.036
observation-type: IC50 (nM)
One number for each entry, in nM.

Inquiry: Find IC50 (HIV-1 integrase wild-type (IN1-288) (Human immunodeficiency virus 1) (UniProt P12497)) for the entry TCTTCCTCTCTCTACCCACGCTCIC [T30531 antisense GEM91 variant PT]
Reply text: 30

====

Would you mind telling me the reported pIC50 of each entry?
- test-target: HIV-1 gp120 (Human immunodeficiency virus 1) (UniProt P04578)
- assay-method-text: competition
- protocol-conditions: phosphodiester, 3'-amine; ID50 for gp120, gp120-CD4 interaction
pIC50: −log10 of the molar value.

{"sequence-content": "GTGGTGGGTGGGTGGGTGGTGGGTGGTGGTTGTGGGTGGGTGGTG [I100-07]", "pIC50": 6.10}
{"sequence-content": "GATCCATGTCAGTGACAC [1231 random GATC]", "pIC50": "< 4.00"}

Inquiry: Record request: pIC50 value, item GGGTGGGTGGGTGGGTGG [1173]
Reply text: < 4.00
